FYI, the data here is from patent US12122778B2.

system: PKR(G332S) (Homo sapiens, UniProt P30613, G332S)
Sequence (P30613 whole entry G332S): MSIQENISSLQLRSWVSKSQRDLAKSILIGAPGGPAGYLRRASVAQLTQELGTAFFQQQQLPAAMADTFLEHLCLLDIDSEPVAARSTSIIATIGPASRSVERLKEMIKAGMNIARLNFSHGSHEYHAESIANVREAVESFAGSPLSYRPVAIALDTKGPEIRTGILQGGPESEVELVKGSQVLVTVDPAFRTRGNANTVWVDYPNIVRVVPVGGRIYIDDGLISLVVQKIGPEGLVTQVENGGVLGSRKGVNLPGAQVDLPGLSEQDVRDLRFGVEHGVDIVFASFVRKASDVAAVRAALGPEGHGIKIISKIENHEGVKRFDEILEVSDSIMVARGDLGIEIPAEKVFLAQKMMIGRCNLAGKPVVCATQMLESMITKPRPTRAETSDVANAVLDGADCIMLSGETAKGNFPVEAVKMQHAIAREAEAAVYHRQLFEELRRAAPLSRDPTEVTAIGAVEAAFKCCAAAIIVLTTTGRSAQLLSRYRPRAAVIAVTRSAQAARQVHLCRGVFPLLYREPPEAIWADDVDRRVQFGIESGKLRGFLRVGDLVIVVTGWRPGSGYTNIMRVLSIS
assay-protocol: Luminescence Biochemical Assay (Kinase Glo Plus), PKR G332S mutant
test-parameters: with FBP, read-out: AC50 LUM KGP FBP AC50 μM gmean (column A)
property-name: AC50

Recorded results for 5 molecules are shown here.
O=C([C@H](O)c1ccc2c(c1)CNCC2)N1CC2=C(C1)CN(S(=O)(=O)c1ccc(OC(F)F)cc1)C2 (single isomer, unassigned)    0.1 to 1 µM
O=C([C@H](O)c1ccccc1)N1CC2=C(C1)CN(S(=O)(=O)c1cccnc1)C2    0.1 to 1 µM
Cc1cc(CNC(=O)N2CC3=C(C2)CN(S(=O)(=O)c2ccc4ncsc4c2)C3)no1    ≤ 0.1 µM
COc1ccccc1CNC(=O)N1CC2=C(C1)CN(S(=O)(=O)c1ccc3nsnc3c1)C2    1 to 40 µM
CN1CCOc2ccc([C@H](O)C(=O)N3CC4=C(C3)CN(S(=O)(=O)c3ccc(OC(F)F)cc3)C4)cc21 (single isomer, unassigned)    ≤ 0.1 µM

Would you kindly share the measured AC50 for O=C(NCc1ccc(F)cc1)N1CC2=C(C1)CN(S(=O)(=O)c1ccc3occc3c1)C2 ? 1 to 40 µM

Would you kindly share the measured AC50 for Cc1nc(S(=O)(=O)N2CC3=C(CN(C(=O)[C@H](C)c4ccccc4)C3)C2)cn1C ? 0.1 to 1 µM

----------
The following molecules are shown together with reported AC50 values.
system: PKR(wt) (Homo sapiens)
Sequence (P30613 whole entry): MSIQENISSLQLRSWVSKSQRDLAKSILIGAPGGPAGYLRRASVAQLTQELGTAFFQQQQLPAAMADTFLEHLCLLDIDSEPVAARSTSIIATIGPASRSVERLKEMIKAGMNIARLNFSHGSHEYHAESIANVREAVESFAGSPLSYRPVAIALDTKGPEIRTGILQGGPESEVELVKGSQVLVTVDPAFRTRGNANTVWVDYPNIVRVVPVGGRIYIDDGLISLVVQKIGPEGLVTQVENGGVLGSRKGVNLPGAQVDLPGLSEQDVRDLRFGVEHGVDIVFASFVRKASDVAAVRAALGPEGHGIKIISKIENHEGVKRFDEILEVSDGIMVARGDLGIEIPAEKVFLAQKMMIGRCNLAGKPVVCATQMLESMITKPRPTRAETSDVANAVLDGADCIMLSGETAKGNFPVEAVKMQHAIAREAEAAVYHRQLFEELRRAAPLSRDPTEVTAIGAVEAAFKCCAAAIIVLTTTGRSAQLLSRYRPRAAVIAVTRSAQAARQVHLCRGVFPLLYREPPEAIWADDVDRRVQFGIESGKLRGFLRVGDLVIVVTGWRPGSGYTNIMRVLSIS
assay-protocol: Luminescence Biochemical Assay (Kinase Glo Plus), wild type PKR
test-parameters: without FBP, read-out: AC50 LUM KGP woFBP AC50 μM gmean

Recorded results for 3 molecules are shown here.
O=C(NCc1ccccc1F)N1CC2=C(C1)CN(S(=O)(=O)c1ccc(OC(F)F)cc1)C2    ≤ 0.1 µM
O=C(NCc1ccco1)N1CC2=C(C1)CN(S(=O)(=O)c1ccc(OC(F)F)cc1)C2    ≤ 0.1 µM
O=C(Cn1cccn1)N1CC2=C(C1)CN(S(=O)(=O)c1ccc(OC(F)F)cc1)C2    1 to 40 µM

Next molecule, please.
Would you kindly share the measured AC50 for Cc1cc(CNC(=O)N2CC3=C(C2)CN(S(=O)(=O)c2ccc4ncsc4c2)C3)on1 ? 0.1 to 1 µM

----------
system: PKR(G332S) (Homo sapiens, UniProt P30613, G332S)
assay-protocol: Luminescence Biochemical Assay (Kinase Glo Plus), PKR G332S mutant
test-parameters: with FBP, read-out: AC50 LUM KGP FBP AC50 μM gmean (column A)
Procedure: In some embodiments, a PKR Activating Compound can have: (1) an AC50 value of less than 0.1 μM (e.g., compounds with AC50 values of “+++” in Table 13), 0.1-1.0 μM (e.g., compounds with AC50 values of “++” in Table 13), or 1.01-40 μM (e.g., compounds with AC50 values of “+” in Table 13); (2) a MAX % Fold of 75%-250%, 250-500%, or 75%-500%; and/or (3) a % Fold@1.54 μM of 75%-250%, 250-500%, or 75%-500%. […]
property-name: AC50

Recorded results for 6 compounds are shown here.
N#Cc1ccccc1S(=O)(=O)N1CC2=C(CN(C(=O)[C@H](O)c3ccccc3)C2)C1 [Example 18-47]    1 to 40 µM
COc1cccc(CNC(=O)N2CC3=C(C2)CN(S(=O)(=O)c2ccc4nsnc4c2)C3)c1 [Example 20-25]    0.1 to 1 µM
O=C([C@@H](O)c1ccccn1)N1CC2=C(C1)CN(S(=O)(=O)c1ccc(OC(F)F)cc1)C2 (single isomer, unassigned) [Example 8-3]    0.1 to 1 µM
COc1ccccc1CNC(=O)N1CC2=C(C1)CN(S(=O)(=O)c1ccc3ncsc3c1)C2 [Example 21-18]    ≤ 0.1 µM
NS(=O)(=O)c1cccc(S(=O)(=O)N2CC3=C(CN(C(=O)[C@H](O)c4ccccc4)C3)C2)c1 [Example 17-1]    1 to 40 µM
Cc1ccc(S(=O)(=O)N2CC3=C(CN(C(=O)[C@H](O)c4ccccc4)C3)C2)cc1F [Example 18-51]    1 to 40 µM

Would you kindly share the measured AC50 for Cc1cc(COC(=O)N2CC3=C(C2)CN(S(=O)(=O)c2ccc(OC(F)F)cc2)C3)nn1C [Example 22-4] ? 0.1 to 1 µM

Would you kindly share the measured AC50 for O=C(Cc1ccc[nH]1)N1CC2=C(C1)CN(S(=O)(=O)c1ccc(OC(F)F)cc1)C2 [Example 18-27] ? 1 to 40 µM

Would you kindly share the measured AC50 for O=C([C@H](O)c1ccccc1)N1CC2=C(C1)CN(S(=O)(=O)c1ccc(F)c(F)c1)C2 [Example 18-53] ? 1 to 40 µM

Would you kindly share the measured AC50 for Cc1nc(CC(=O)N2CC3=C(C2)CN(S(=O)(=O)c2ccccn2)C3)cs1 [Example 18-68] ? 0.1 to 1 µM

Would you kindly share the measured AC50 for O=C(N1CC2=C(C1)CN(S(=O)(=O)c1ccc(OC(F)F)cc1)C2)C(F)(F)c1ccccc1 [Example 18-25] ? ≤ 0.1 µM

Would you kindly share the measured AC50 for O=C([C@H](O)c1ccc(F)cc1)N1CC2=C(C1)CN(S(=O)(=O)c1ccc(C(F)(F)F)nc1)C2 [Example 18-64] ? 1 to 40 µM

Would you kindly share the measured AC50 for CN1CCOc2ccc([C@@H](O)C(=O)N3CC4=C(C3)CN(S(=O)(=O)c3ccc(OC(F)F)cc3)C4)cc21 (single isomer, unassigned) [Example 10-1] ? 0.1 to 1 µM

Would you kindly share the measured AC50 for O=C(Cn1cnnn1)N1CC2=C(C1)CN(S(=O)(=O)c1cccnc1)C2 [Example 18-70] ? 1 to 40 µM

Would you kindly share the measured AC50 for O=C(NCc1ccccc1F)N1CC2=C(C1)CN(S(=O)(=O)c1ccc3ncsc3c1)C2 [Example 21-20] ? ≤ 0.1 µM
